What follows is a collection of IC50 values obtained with Acetylcholinesterase (Homo sapiens, UniProt P22303).
Sequence (P22303 whole entry): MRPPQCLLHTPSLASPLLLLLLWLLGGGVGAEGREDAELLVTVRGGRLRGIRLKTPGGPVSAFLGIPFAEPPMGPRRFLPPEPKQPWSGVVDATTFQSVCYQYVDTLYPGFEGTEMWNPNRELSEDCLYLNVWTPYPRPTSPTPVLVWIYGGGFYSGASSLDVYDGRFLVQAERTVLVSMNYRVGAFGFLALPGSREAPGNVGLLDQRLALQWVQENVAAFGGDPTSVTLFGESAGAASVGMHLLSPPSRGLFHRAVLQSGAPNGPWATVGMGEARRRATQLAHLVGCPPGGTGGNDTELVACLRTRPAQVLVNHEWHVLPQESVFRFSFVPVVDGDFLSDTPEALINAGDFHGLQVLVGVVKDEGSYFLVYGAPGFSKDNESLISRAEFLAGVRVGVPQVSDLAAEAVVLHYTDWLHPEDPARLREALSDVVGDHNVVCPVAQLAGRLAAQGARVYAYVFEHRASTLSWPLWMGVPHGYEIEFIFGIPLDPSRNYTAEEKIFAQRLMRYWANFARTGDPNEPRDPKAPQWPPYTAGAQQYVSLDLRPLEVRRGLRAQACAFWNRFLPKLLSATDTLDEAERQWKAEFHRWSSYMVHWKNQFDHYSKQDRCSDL
The response must be a number in µM with no trailing unit.

- structure-as-smiles: "CCCCCCCCCCCCCCNc1c2c(nc3ccc(OC)cc13)CCCC2"
  target-entity: "Acetylcholinesterase (Homo sapiens, UniProt P22303)"
  IC50 / µM: 46

Query block: Recorded IC50 of CCCCCCCCCNc1c2c(nc3ccc(OC)cc13)CCCC2 , please.
Result block: 1.6

Query block: Recorded IC50 of CCCCCCCCNc1c2c(nc3ccc(OC)cc13)CCCC2 , please.
Result block: 0.36

----------
- target-entity: UniProt P22303
value-kind: log10(IC50) (log10 of the value in µM)
Please interpret these as log10 of IC50 where IC50 is in µM.

Query block: Notebook entry, UniProt P22303 assay: log10(IC50) of CCCCCCNc1c2c(nc3ccc(OC)cc13)CCCC2 = ?
Result block: -1.00
